target: UniProt P10275; assay: AR whole cell competitive binding assay (COS-1 cells, 3H-DHT); details: 1 nM 3H-DHT, Cheng-Prusoff
Sequence (P10275 whole entry): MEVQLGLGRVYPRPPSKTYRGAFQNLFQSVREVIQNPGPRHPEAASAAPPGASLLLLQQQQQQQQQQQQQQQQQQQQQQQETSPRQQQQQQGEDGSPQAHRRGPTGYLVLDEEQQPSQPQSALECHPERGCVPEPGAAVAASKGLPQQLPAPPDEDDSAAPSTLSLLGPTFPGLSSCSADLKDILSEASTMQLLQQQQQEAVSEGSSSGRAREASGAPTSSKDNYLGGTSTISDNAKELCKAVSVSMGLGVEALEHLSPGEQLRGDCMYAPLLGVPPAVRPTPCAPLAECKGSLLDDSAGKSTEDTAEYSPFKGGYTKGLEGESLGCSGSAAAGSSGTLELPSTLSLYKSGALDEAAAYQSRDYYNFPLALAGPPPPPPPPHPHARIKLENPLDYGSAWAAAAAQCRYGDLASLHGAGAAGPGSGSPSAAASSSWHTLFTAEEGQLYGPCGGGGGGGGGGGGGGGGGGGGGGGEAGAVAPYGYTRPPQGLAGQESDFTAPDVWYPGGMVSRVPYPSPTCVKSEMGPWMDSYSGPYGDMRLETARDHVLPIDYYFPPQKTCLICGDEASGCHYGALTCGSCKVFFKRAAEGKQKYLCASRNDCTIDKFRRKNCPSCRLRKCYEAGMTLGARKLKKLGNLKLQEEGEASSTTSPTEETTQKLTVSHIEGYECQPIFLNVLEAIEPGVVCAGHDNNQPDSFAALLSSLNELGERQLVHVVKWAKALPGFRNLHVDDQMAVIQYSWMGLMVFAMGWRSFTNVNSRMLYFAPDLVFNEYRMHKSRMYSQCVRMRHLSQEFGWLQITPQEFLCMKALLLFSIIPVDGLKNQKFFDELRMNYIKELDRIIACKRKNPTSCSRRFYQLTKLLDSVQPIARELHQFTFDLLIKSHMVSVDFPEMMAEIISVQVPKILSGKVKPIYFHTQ
test readout: Ki (nM)
Response body: numeric value in nM, unit text excluded.

Ki for CC(C)CN(CC(F)(F)F)c1ccc2[nH]c(=O)cc(C(F)(F)F)c2c1 ?
6.3

If you can, please state the reported Ki value of CC(C)CN(CC(C)C)c1ccc2[nH]c(=O)cc(C(F)(F)F)c2c1 .
147

Given O=c1cc(C(F)(F)F)c2cc(N(CC(F)(F)F)CC(F)(F)F)ccc2o1 , state its recorded Ki.
1.8

Item CC1(C)CC2CC(C)(CN2c2ccc3[nH]c(=O)cc(C(F)(F)F)c3c2)C1 (racemic) has what recorded Ki?
165
